Biological target: GST-tagged truncated human mutant G2019S LRRK2 (Homo sapiens (Human), UniProt Q5S007, G2019S)
Sequence (Q5S007 970-2527 G2019S): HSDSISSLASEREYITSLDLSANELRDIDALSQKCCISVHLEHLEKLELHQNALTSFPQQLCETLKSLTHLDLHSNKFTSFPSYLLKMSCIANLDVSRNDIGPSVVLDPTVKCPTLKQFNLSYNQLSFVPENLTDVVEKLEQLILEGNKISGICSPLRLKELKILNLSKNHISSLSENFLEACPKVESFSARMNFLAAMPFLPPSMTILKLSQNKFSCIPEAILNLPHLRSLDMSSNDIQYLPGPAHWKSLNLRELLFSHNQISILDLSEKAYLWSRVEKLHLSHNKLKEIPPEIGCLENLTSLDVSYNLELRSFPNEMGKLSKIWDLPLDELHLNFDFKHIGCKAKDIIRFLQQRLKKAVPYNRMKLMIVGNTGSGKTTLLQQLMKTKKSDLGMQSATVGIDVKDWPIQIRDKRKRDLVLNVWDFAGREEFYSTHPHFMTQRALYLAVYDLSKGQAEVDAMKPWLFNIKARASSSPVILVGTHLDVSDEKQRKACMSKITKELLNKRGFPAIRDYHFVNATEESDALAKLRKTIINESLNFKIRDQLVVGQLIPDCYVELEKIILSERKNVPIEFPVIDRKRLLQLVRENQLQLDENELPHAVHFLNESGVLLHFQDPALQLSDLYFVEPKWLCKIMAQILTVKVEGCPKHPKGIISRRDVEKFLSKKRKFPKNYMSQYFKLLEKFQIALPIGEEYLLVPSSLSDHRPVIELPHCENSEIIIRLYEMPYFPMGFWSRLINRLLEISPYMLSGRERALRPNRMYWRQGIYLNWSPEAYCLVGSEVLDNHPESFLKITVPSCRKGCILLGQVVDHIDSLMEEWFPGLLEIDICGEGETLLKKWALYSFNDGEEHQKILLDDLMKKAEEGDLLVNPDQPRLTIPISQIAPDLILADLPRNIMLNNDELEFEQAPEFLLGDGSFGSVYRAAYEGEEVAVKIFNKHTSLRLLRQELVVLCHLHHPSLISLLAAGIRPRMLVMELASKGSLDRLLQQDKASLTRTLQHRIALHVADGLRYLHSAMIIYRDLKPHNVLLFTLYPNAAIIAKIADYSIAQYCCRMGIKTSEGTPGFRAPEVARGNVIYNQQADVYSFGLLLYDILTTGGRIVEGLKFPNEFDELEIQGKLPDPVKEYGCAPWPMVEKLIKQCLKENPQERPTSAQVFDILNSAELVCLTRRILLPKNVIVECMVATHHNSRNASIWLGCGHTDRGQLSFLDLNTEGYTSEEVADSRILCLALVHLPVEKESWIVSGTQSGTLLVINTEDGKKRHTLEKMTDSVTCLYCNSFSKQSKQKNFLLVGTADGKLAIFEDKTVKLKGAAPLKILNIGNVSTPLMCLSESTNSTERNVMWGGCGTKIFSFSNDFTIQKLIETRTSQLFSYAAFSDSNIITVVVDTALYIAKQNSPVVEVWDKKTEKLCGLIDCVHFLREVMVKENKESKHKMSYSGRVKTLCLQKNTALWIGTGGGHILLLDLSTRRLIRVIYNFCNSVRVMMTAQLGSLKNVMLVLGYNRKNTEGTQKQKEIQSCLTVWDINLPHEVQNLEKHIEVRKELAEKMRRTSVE
Assay: LRRK2 G2019S Km ATP LanthaScreen assay
Format: biochemical
Details: G2019S LRRK2, 134 μM ATP (Km ATP), LRRKtide substrate
Source text: Unless otherwise noted, all reactions are magnetically allowed to stir, diethyl ether used in the experiments described below is Fisher ACS certified material stabilized with BHT, and “concentrated” and/or “solvent removed under reduced pressure” means evaporating the solvent from a solution or mixture using a rotary evaporator or vacuum pump. […]
LRRK2 pIC50 under 8 gets Criterion met, anything at or over 8 gets Criterion not met.

Please review the entries below; each comes with its answer.
| compound | classification |
| --- | --- |
| Cc1nn(C)c2c1OCC1CC[C@H]1Nc1nc(ncc1C(F)(F)F)N2 (stereo partly shown) [Ex-2.10] | Criterion not met |
| FC(F)(F)c1cnc2nc1NC1CCC1COc1c(C3CCOC3)nn(C3CCC3)c1N2 (stereo not shown) [Ex-2.63] | Criterion not met |
| CC(C)n1nc(C(C)(C)C#N)c2c1Nc1ncc(C(F)(F)F)c(n1)N[C@@H]1COC[C@H]1CO2 | Criterion not met |
| CC(C)n1nc(C2CC2)c2c1Nc1ncc(C(F)(F)F)c(n1)N[C@@H]1COC[C@H]1CO2 | Criterion not met |
| COC1CCC1n1nc(C)c2c1Nc1ncc(C(F)(F)F)c(n1)NC1COCC1CO2 (stereo not shown) [Ex-2.36] | Criterion met |

INPUT: Please indicate whether the reported LRRK2 pIC50 of "CC(C)(C#N)n1nc(C2CC2)c2c1OC[C@@H]1CC[C@H]1Nc1nc(ncc1C(F)(F)F)N2" is strictly below 8.
OUTPUT: Criterion not met

INPUT: Lab note: confirm whether the reported LRRK2 pIC50 for this compound is below 8, equality not counting. compound: FC(F)(F)c1cnc2nc1NC1CCC1COc1c(C3COC3)nn(C3CCC3)c1N2 (stereo not shown) [Ex-2.71]
OUTPUT: Criterion not met

INPUT: Strictly below 8: is that where LRRK2 pIC50 of "CCOC(=O)C(C)(C)n1nc(C(C)C)c2c1OCC[C@@H](C)Nc1nc(ncc1C(F)(F)F)N2" sits?
OUTPUT: Criterion met

INPUT: Is LRRK2 pIC50 strictly under 8 for the entry Cc1nn(C2CCC2)c2c1OC[C@H]1CC[C@H]1Nc1nc(ncc1C(F)(F)F)N2 (single isomer, unassigned) [Ex-2.23] ?
OUTPUT: Criterion not met

INPUT: Below 8 on LRRK2 pIC50? Entry Cn1nc(C2CC2)c2c1OCC1CCC1Nc1nc(ncc1C(F)(F)F)N2 (stereo not shown) [Ex-1.8]
OUTPUT: Criterion met

* * *

target: GST-tagged truncated human mutant G2019S LRRK2 (Homo sapiens (Human), UniProt Q5S007, G2019S); assay: LRRK2 G2019S Km ATP LanthaScreen assay; format: biochemical; details: G2019S LRRK2, 134 μM ATP (Km ATP), LRRKtide substrate
Classify: MET when LRRK2 pIC50 is strictly less than 9; NOT MET when LRRK2 pIC50 is not.

| compound | classification |
| --- | --- |
| O[C@@H]1COCC1n1nc(C2CC2)c2c1OC[C@H]1CC[C@@H]1Nc1nc(ncc1C(F)(F)F)N2 (single isomer, unassigned) [Ex-6.1] | MET |
| FC(F)(F)c1cnc2nc1N[C@@H]1COC[C@H]1COc1ccnc(Cl)c1N2 [Ex-15.5] | NOT MET |
| Cc1nn(C2CCC2)c2c1OC[C@@H]1COC[C@H]1Nc1nc(ncc1F)N2 [Ex-2.66] | MET |
| CC(C)c1nn(C(C)(C)C#N)c2c1Nc1ncc(Cl)c(n1)N[C@@H]1COC[C@H]1CO2 [Ex-1.16] | NOT MET |
| Cc1nn(C(C)C)c2c1OC[C@@H]1COC[C@H]1Nc1cc(ncc1C(F)(F)F)N2 [Ex-13.5] | NOT MET |

INPUT: Just wondering, is LRRK2 pIC50 of Cc1nn(C)c2c1Nc1ncc(C(F)(F)F)c(n1)NCC1(CC1)CO2 [Ex-1.23] below 9?
OUTPUT: NOT MET

INPUT: Report whether reported LRRK2 pIC50 is lower than 9 (strictly) for O[C@H]1CC[C@@H]1n1nc(C2CC2)c2c1OC[C@@H]1COC[C@H]1Nc1nc(ncc1C(F)(F)F)N2 (single isomer, unassigned) [Ex-6.8]
OUTPUT: NOT MET
